# TEST PROTOCOL: Practical solubility by direct dissolution in normal saline, HPLC after 0.22-micron filtration
# Format: physicochemical
# REPORTED CONDITIONS: 0.9% sodium chloride injection, USP (normal saline), saline or isotonic, thermodynamic from solid; normal saline, about 23° C., putative 4 mg/mL and 5 mg/mL samples, shaking one week, filtered 0.22-micron, HPLC; read-out: amount of baclofen actually dissolved (practical solubility)
MEASURED PROPERTY: solubility at 1 week

Q: Please report the recorded solubility at 1 week for NCC(CC(=O)O)c1ccc(Cl)cc1 (stereo not shown) .
Result: 3300 to 3500 µg/mL
